B1: HDV Ribozyme (parent)
chain: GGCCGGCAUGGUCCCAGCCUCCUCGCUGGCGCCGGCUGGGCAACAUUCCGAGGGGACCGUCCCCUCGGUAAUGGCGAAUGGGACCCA

# Variants of: B1
# method: self-cleavage, relative activity (ratio to wild type); higher = more cleavage; co-transcriptional
Threshold check on self-cleavage: at or above 0.2 gives Yes, strictly below gives No.

{"polymer sequence": "GGCCGGCAUGGGCCCAGCCUCCUCGCUGGCGCCGGCUGCGCAACAUUCCGAGGGGACCGUCCCCUCGGUAAUGGCGAAUGGGACCCA [U12G G39C]", "qualitative label": "Yes"}
{"polymer sequence": "GGCCGGCAUGGUCCCAGCCUACUCGAUGGCGCCGGCUGGGCAACAUUCCGAGGGGACCGUCCCCUCGGUAAUGGCGAAUGGGACCCA [C21A C26A]", "qualitative label": "No"}
{"polymer sequence": "GGCCGGCAUGGUCCCAGCCGCCUCGCUGGCGCCGGCUGGGCAACAGUCCGAGGGGACCGUCCCCUCGGUAAUGGCGAAUGGGACCCA [U20G U46G]", "qualitative label": "No"}
{"polymer sequence": "GGCCGGCAUGGUCCCAGCCUCCUCGCUGGCGCCGGCUGGGCAACAUUCCGCGGGGACCGUCCCCUCGGUAGUGGCGAAUGGGACCCA [A51C A71G]", "qualitative label": "Yes"}
{"polymer sequence": "GGCCGGCAUGGUCCCAGAUUCCUCGCUGGCGCCGGCUGGGCAACAUUCCGAGGGGACCGUCCCCUCGGUAAUGGCGAAUGGGACCCA [C18A C19U]", "qualitative label": "No"}
{"polymer sequence": "GGCCGGCAUGGUCCCAGCCUCCUCGCUGGCGCCGGCUGGGCAACAUACCGCGGGGACCGUCCCCUCGGUAAUGGCGAAUGGGACCCA [U47A A51C]", "qualitative label": "Yes"}
{"polymer sequence": "GGACGGCAUGGUCCCAGCCUCCUCGCUGGCGCCGGCUGGGCAACAUUCCGAGGGGACCGUCCCCUCCGUAAUGGCGAAUGGGACCCA [C3A G67C]", "qualitative label": "Yes"}
{"polymer sequence": "AGCCGGCAUGGUCCCAGCCUCCUCGCUGGCGCCGGCUGGGCAACAUGCCGAGGGGACCGUCCCCUCGGUAAUGGCGAAUGGGACCCA [G1A U47G]", "qualitative label": "No"}
